Each entry below lists one item and its recorded inhibition value.
- target_of_assay: Botulinum neurotoxin type A (Clostridium botulinum (strain Hall / ATCC 3502 / NCTC 13319 / Type A)) (UniProt P0DPI1)
- Sequence (P0DPI1 2-448 limits assumed): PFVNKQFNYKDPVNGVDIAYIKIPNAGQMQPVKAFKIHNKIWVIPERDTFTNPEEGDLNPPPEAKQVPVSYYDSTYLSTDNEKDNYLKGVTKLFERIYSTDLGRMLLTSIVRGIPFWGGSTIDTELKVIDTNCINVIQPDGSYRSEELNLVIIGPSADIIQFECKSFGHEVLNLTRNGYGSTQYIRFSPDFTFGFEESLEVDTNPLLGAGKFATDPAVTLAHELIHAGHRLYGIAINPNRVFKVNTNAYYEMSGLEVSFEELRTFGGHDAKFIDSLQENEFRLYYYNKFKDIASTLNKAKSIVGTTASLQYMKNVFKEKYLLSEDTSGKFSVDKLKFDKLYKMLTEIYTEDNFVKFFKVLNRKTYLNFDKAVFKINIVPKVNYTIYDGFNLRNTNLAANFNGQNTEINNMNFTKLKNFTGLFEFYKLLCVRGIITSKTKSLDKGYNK
- test_protocol: Inhibition of Clostridium botulinum Hall BoNT/A protease activity using Ac-SNKTRIDEANQRATKML-NH2 as substrate at 100 uM after 5 mins by RP-HPLC analysis
The reply should consist of the numeric value with the unit placed after it.

Consider the worked cases shown below.
compound	inhibition
C[C@H]1Oc2cc3c(-c4c(O)cc(O)c5c(O)c6c(cc45)O[C@H](C)[C@@H](C)C6=O)c(O)cc(O)c3c(O)c2C(=O)[C@@H]1C	74%
COC(=O)[C@]12Oc3ccc(-c4ccc5c(c4O)C(=O)C4=C(O)C[C@@H](C)[C@H](O)[C@@]4(C(=O)OC)O5)c(O)c3C(=O)C1=C(O)C[C@@H](C)[C@@H]2O	64.5%
CC1CC(=O)c2c(cc3c(-c4c(O)cc(O)c5c(O)c6c(cc45)OC(C)CC6=O)c(O)cc(O)c3c2O)O1 (centres undefined)	72%

// next item, inhibition requested
Any idea what inhibition was measured for CCOc1ccc(C(Nc2cccnc2)c2cc(Cl)c3cccnc3c2O)cc1 (racemic) ? 98%
